Data credit: patent US20230365675A1

- target.of.assay: T1, Mutant CD33-GFP M3 (N99A) on 293FT cells (UniProt P20138 18-364)
- T1 construct: whole, on cells; not shown: GFP fused to CD33
- run.description: FACS, mutant CD33-GFP on 293FT cells
reported.endpoint: FACS binding data
Number, no unit, nothing else.

Below are worked cases with known answers.
binder: sdCD33_5 (VHH, sdAb from a naive llama phage library; also called 413; sdAb413) VHH: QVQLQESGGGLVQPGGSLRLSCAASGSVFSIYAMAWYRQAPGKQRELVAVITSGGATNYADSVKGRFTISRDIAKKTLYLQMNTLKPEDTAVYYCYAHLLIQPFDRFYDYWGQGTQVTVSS
FACS binding data: 96.8
//
binder: sdCD33_8 (VHH, sdAb from a naive llama phage library; also called 424; sdAb424) VHH: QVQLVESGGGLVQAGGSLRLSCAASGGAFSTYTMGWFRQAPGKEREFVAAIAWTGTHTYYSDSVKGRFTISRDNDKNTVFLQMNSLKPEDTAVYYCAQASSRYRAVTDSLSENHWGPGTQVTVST
FACS binding data: 3.43
//
binder: sdCD33_11 (VHH, sdAb from a naive llama phage library; also called 430; sdAb430) VHH: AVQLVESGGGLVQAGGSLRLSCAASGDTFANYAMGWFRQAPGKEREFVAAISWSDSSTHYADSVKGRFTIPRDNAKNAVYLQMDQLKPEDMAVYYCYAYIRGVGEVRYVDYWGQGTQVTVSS
FACS binding data: 99.3
//
binder: sdCD33_6 (VHH, sdAb from a naive llama phage library; also called 416; sdAb416) VHH: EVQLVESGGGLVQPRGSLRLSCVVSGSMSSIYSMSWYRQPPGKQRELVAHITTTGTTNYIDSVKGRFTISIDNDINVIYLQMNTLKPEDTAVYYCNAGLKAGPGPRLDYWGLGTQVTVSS
FACS binding data: 98.7
//
binder: sdCD33_10 (VHH) VHH: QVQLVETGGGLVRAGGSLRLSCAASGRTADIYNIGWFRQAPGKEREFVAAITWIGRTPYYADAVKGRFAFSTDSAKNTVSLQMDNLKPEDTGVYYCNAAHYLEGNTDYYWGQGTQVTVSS
FACS binding data: 99
//
binder: sdCD33_9 (VHH, sdAb from a naive llama phage library; also called 426; sdAb426) VHH: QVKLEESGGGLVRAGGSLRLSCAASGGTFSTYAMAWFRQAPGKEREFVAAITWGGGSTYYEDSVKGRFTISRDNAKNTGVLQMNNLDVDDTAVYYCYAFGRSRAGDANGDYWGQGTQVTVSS
FACS binding data: 99.5
//
binder: sdCD33_2 (VHH) VHH: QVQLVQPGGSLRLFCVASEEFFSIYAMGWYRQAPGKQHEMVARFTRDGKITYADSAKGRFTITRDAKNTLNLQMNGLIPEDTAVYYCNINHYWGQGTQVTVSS
FACS binding data: 81.9

Here is the next item to consider.
Query :: Entry sdCD33_4 (VHH) VHH: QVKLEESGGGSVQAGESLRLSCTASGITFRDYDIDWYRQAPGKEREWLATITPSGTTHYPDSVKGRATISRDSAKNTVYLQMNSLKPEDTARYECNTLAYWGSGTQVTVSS : reported FACS binding data = ?
Result :: 97
